System: SGK1 (human), O00141 [S422D]
Sequence (O00141 whole entry S422D, looked up): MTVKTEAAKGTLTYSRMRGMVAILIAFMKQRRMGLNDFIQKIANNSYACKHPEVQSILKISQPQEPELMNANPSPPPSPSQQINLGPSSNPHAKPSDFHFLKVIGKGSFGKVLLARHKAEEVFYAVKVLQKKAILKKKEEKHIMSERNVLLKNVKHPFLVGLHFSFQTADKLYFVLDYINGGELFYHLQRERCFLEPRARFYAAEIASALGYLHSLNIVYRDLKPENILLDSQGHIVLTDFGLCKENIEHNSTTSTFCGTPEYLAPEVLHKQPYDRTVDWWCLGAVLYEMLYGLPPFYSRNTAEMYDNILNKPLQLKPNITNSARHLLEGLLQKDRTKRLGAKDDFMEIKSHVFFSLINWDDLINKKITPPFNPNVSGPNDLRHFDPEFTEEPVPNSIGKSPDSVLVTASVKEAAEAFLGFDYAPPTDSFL
protocol-text: radiometric filter-binding kinase assay, Kinase HotSpot
particulars: compound 0.5 µM; ATP 10 µM
// values below are reported residual activity
I'd appreciate it if you wrote the number followed by its unit.

Ask | What measured residual activity goes with O=C1NC(=O)c2c1c1c3ccccc3n3c1c1c2c2ccccc2n1C1CCC3O1 ?
Reply | 23.8%

Ask | residual activity lookup needed for O=C1Nc2ccccc2/C1=C\c1c(Cl)[nH]c2ccccc12 , thanks.
Reply | 116%

Ask | # input molecule: O=C(NC(NC(=S)Nc1ccc(F)c([N+](=O)[O-])c1)C(Cl)(Cl)Cl)C(c1ccccc1)c1ccccc1 (stereo not given) ; wanted: its residual activity
Reply | 93.1%

Ask | Field request: residual activity | item: O=C1Cc2c([nH]c3ccc([N+](=O)[O-])cc23)-c2ccccc2N1
Reply | 96%

---
Ask | For N#C/C(=C(/N)Sc1ccc(N)cc1)c1ccccc1C(F)(F)F , what is its reported residual activity?
Reply | 102%

* * *

Recorded residual activity by entry
target-entity: MARK3 (human) (UniProt P27448)
Sequence (P27448 whole entry, looked up): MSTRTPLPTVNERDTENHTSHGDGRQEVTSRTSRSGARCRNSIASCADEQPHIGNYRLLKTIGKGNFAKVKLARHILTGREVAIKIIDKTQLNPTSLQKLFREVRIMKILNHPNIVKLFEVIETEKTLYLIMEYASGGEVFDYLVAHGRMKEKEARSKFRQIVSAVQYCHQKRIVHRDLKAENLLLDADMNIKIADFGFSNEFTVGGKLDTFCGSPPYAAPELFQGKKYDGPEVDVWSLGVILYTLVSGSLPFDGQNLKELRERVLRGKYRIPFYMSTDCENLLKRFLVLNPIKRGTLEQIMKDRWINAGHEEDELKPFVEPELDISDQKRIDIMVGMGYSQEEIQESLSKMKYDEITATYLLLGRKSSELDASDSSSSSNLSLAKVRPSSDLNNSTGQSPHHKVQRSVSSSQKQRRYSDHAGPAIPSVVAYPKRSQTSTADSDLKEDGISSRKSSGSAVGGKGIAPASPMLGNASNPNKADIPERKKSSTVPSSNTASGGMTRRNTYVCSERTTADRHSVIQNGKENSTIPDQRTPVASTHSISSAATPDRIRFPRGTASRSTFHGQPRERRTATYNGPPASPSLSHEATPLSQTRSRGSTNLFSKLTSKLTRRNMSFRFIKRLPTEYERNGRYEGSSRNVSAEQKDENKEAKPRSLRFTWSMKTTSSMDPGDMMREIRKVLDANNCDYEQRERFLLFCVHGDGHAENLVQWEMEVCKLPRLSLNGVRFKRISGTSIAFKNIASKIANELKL
protocol-text: radiometric filter-binding kinase assay, Kinase HotSpot
particulars: compound 0.5 µM; ATP 10 µM
Please reply with the bare figure in % and do not write the unit itself.

Ask | residual activity for COc1cccc(-c2cc(=O)c3ccccc3o2)c1N ?
Reply | 86.7

Next:
Ask | Consider the compound shown here: FC(F)(F)c1ccc(/C=C/c2nc(COc3ccc(CCCCn4ccnn4)cc3)co2)cc1 What is its recorded residual activity?
Reply | 96.6

Ask | Entry COc1cc2c(Nc3ccc(Br)cc3F)ncnc2cc1OCC1CCN(C)CC1 has what residual activity?
Reply | 106

Ask | Form field: reported residual activity of O=S(=O)(NCCNC/C=C/c1ccc(Br)cc1)c1cccc2cnccc12
Reply | 96.2

* * *

target-entity: MKNK2 (human) (UniProt Q9HBH9)
Sequence (Q9HBH9 whole entry, looked up): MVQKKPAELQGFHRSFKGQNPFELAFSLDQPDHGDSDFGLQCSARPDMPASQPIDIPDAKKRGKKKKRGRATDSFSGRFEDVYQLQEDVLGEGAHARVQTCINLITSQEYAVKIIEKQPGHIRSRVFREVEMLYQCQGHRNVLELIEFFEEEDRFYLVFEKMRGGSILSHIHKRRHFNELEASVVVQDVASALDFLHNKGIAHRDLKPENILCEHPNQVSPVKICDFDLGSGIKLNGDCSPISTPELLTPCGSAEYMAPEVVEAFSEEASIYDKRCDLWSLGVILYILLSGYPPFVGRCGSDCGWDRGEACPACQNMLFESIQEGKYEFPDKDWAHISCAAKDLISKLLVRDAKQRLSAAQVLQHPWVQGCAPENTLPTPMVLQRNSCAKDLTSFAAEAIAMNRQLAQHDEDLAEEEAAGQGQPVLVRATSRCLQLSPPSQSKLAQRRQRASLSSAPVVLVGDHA
protocol-text: radiometric filter-binding kinase assay, Kinase HotSpot
particulars: compound 0.5 µM; ATP 10 µM
Mark each entry label 1 if its residual activity sits below 90%, and label 0 for all others.

Below are worked cases with known answers.
Ask | Would you kindly verify if residual activity of COc1cc2c(Nc3ccc(Br)cc3F)ncnc2cc1OCC1CCN(C)CC1 is strictly less than 90%?
Reply | label 1

Ask | Dear reviewer, please state whether Cc1cc(Nc2nc(-c3ccccc3)nc3ccccc23)n[nH]1 has residual activity strictly beneath 90%.
Reply | label 1

Ask | In the record for O=c1cc(N2CCOCC2)oc2c(-c3ccccc3)cccc12 , is residual activity less than 90%?
Reply | label 0

Ask | Lab note: confirm whether the reported residual activity for this molecule is below 90%, equality not counting. molecule: O=C1NC(=O)c2c1c1c3ccccc3[nH]c1c1[nH]c3cc(Br)ccc3c21
Reply | label 1

Ask | Identify whether the molecule Cn1cc(/C=C2\C(=O)Nc3ccc(S(N)(=O)=O)cc32)c2ccccc21 records residual activity below 90%.
Reply | label 1

Others:
Ask | # strict comparison: is reported residual activity < 90%? input = Nc1ncnc2c1cnn2-c1ccccc1
Reply | label 1

Ask | State whether 90% exceeds residual activity recorded for O=C(O)c1ccc2c3c1cccc3c(=O)n1c3ccccc3nc21 .
Reply | label 1

* * *

Listed here: items and their measured residual activity.
target-entity: PDPK1 (human) (UniProt O15530)
Sequence (O15530 whole entry, looked up): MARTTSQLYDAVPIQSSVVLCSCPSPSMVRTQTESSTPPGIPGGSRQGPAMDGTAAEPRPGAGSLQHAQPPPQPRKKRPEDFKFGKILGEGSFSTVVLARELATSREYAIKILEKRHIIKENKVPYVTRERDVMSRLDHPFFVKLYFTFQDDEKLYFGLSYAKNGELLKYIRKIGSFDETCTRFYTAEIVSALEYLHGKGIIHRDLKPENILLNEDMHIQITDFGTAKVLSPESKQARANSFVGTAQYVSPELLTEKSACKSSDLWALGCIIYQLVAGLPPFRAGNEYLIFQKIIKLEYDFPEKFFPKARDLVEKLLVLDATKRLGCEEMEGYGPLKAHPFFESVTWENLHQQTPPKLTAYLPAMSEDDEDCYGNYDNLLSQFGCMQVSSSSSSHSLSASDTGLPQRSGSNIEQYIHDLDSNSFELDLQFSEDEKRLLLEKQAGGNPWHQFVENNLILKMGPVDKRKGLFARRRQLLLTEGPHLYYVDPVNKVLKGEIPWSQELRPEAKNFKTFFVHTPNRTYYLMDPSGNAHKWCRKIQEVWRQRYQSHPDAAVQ
protocol-text: radiometric filter-binding kinase assay, Kinase HotSpot
particulars: compound 0.5 µM; ATP 10 µM
Give the value in % but do not write % after it.

The following compounds have reported results that may help.
Ask | # query: residual activity of entry O=C(c1ccccc1)c1ccc(N2CCOCC2)cc1O
Reply | 101

Ask | Data request, read-out residual activity, for Nc1ncnc2c1cnn2-c1ccccc1
Reply | 104

Switching to the query record.
Ask | Tell me the measured residual activity of O=C(O)c1ccc2c3c1cccc3c(=O)n1c3ccccc3nc21 , please.
Reply | 108

* * *

Examples of compounds with documented residual activity follow.
target-entity: ALK (human)
protocol-text: radiometric filter-binding kinase assay, Kinase HotSpot
particulars: compound 0.5 µM; ATP 10 µM
Please give the number followed by its unit.

Ask | I have this compound here, O=C1NC(=O)c2cc(Nc3ccc(F)cc3)c(Nc3ccc(F)cc3)cc21 , and I need its recorded residual activity.
Reply | 92.6%

Ask | If you can, please state the reported residual activity value of CCOc1cc2ncnc(Nc3cccc(Br)c3)c2cc1OCC .
Reply | 85.8%

Ask | Recorded residual activity of N#C/C(=C1/Nc2ccccc2S1)c1ccnc(NCCc2cccnc2)n1 , please.
Reply | 85.2%

Ask | Would you mind telling me what residual activity value was observed for COc1cccc(-c2cc(=O)c3ccccc3o2)c1N ?
Reply | 84.1%

Ask | Item under review: COc1cc2c(cc1OC)-c1[nH]nc(Nc3cccc(F)c3)c1C2 . Reported residual activity?
Reply | 103%

Continuing:
Ask | Quick one: residual activity of O=c1[nH]c2ccccc2n1C1CCN(Cc2ccc(-c3nc4cc5[nH]cnc5cc4nc3-c3ccccc3)cc2)CC1 ?
Reply | 106%

Ask | Reported residual activity, compound CCc1nc(-c2ccc(OC)cc2)[nH]c1-c1ccncc1 : ____
Reply | 106%

Ask | Record request: residual activity value, item N#CCCc1ccc2c(c1)-c1[nH]c3ccc([N+](=O)[O-])cc3c1CC(=O)N2
Reply | 78.8%

Ask | Which residual activity reading was recorded for the compound Cc1cc(Nc2nc(-c3ccccc3)nc3ccccc23)n[nH]1 ?
Reply | 75.9%

Ask | If you can, please state the reported residual activity value of N/C(=N\N=C/c1ccc(-c2cccc([N+](=O)[O-])c2)o1)N[N+](=O)[O-] .
Reply | 93.6%

* * *

target-entity: UniProt:Q9HCP0
Sequence (Q9HCP0 whole entry, looked up): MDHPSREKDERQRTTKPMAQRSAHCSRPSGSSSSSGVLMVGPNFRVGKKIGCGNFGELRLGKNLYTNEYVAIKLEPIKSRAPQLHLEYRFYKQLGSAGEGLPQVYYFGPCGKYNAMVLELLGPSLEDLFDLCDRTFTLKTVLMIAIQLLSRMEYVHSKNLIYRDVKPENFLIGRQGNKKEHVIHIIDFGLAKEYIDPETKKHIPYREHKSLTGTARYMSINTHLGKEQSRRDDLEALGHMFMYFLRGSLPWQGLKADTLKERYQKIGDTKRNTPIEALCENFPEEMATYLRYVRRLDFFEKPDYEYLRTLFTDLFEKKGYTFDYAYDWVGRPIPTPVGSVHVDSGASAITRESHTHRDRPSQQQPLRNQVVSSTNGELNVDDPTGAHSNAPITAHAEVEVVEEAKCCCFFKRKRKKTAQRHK
protocol-text: radiometric filter-binding kinase assay, Kinase HotSpot
particulars: compound 0.5 µM; ATP 10 µM
Rule: residual activity below 90% gives MET, anything at or above gives NOT MET.

Solved cases below.
Ask | In the record for O=C1NC(=O)c2c1c1c3ccccc3[nH]c1c1[nH]c3cc(Br)ccc3c21 , is residual activity less than 90%?
Reply | NOT MET

Ask | Report whether reported residual activity is lower than 90% (strictly) for COc1cccc(-c2cc(=O)c3ccccc3o2)c1N
Reply | MET

Ask | hey, is residual activity for COc1cc2c(Nc3ccc(Br)cc3F)ncnc2cc1OCC1CCN(C)CC1 lower than 90% or not?
Reply | NOT MET

Ask | Given the entry COc1cc2c(cc1OC)-c1[nH]nc(Nc3cccc(F)c3)c1C2 , would its reported residual activity be below 90%?
Reply | MET

Ask | Answer whether the molecule CCc1nc(-c2ccc(OC)cc2)[nH]c1-c1ccncc1 has residual activity strictly less than 90%
Reply | NOT MET

Continuing:
Ask | Field: below-cutoff. Rule: recorded residual activity strictly less than 90%. Subject: N#CCCc1ccc2c(c1)-c1[nH]c3ccc([N+](=O)[O-])cc3c1CC(=O)N2
Reply | MET

Ask | Is it true that residual activity reported for O=c1c(-c2ccc(F)cc2)c(-c2ccncc2)[nH]n1-c1ccc(Cl)cc1 is less than 90%?
Reply | MET

Ask | I'd appreciate it if you could check whether FC(F)(F)c1ccc(/C=C/c2nc(COc3ccc(CCCCn4ccnn4)cc3)co2)cc1 has residual activity smaller than 90%.
Reply | NOT MET

Ask | Hello, is residual activity of the following molecule strictly smaller than 90%? CCCCc1c(-c2ccc(O)cc2)[nH]c2nccnc12
Reply | NOT MET

Ask | For O=c1cc(N2CCOCC2)oc2c(-c3ccccc3)cccc12 , is the recorded residual activity below the cut-off of 90%?
Reply | NOT MET

Ask | Is residual activity of O=C1NC(=O)c2cc(Nc3ccc(F)cc3)c(Nc3ccc(F)cc3)cc21 strictly below 90%?
Reply | NOT MET

Ask | For this molecule, is residual activity lower than 90%? Nc1ncnc2c1cnn2-c1ccccc1
Reply | NOT MET

Ask | Does the reported residual activity of O=c1[nH]c2ccccc2n1C1CCN(Cc2ccc(-c3nc4cc5[nH]cnc5cc4nc3-c3ccccc3)cc2)CC1 stay below 90%?
Reply | NOT MET

Ask | For this molecule, is residual activity lower than 90%? O=C(c1ccccc1)c1ccc(N2CCOCC2)cc1O
Reply | NOT MET

Ask | Just wondering, is residual activity of c1ccc(-c2cnc(Nc3ccc(OCCN4CCCC4)cc3)s2)cc1 below 90%?
Reply | NOT MET

Ask | Hello, I'm reviewing records and need to know if residual activity of O=C(O)c1ccc2c3c1cccc3c(=O)n1c3ccccc3nc21 is below 90%. Could you check?
Reply | NOT MET

Ask | Record O=S(=O)(NCCNC/C=C/c1ccc(Br)cc1)c1cccc2cnccc12 : is its residual activity strictly below 90%?
Reply | NOT MET

Ask | A record lists COc1cc2c(N3CCN(C(=O)Nc4ccc(OC(C)C)cc4)CC3)ncnc2cc1OCCCN1CCCCC1 . Is its residual activity below 90%?
Reply | NOT MET

Ask | Take the molecule Cc1cc(Nc2nc(-c3ccccc3)nc3ccccc23)n[nH]1 and say whether its residual activity is less than 90%.
Reply | MET

Ask | Dear reviewer, please state whether N#Cc1c(NC(=O)c2cccc3ccccc23)sc2c1CCCC2 has residual activity strictly beneath 90%.
Reply | NOT MET

Ask | In the record for CCOc1cc2ncnc(Nc3cccc(Br)c3)c2cc1OCC , is residual activity less than 90%?
Reply | NOT MET

Ask | Determine if N/C(=N\N=C/c1ccc(-c2cccc([N+](=O)[O-])c2)o1)N[N+](=O)[O-] shows residual activity strictly lower than 90%.
Reply | NOT MET
